protocol-text: DUSP6 inhibitors restoring Erk phosphorylation by chemical complementation, primary imaging in DUSP6-transfected HeLa (AID 609)
test-settings: HeLa MKP-3 transfected, phospho-Erk imaging KS statistic; measured here: nuclear c-Myc green intensity z-score; at 10 µM; cells stimulated with TPA for 15 min

compound	z-score
CCCCCCc1cc2cc(-c3nnc(-c4ccccc4O)o3)c(=O)oc2cc1O	1.83
CC(=O)Nc1cnc2ccccc2n1	0.21
NS(=O)(=O)c1cc2c(cc1Cl)NC(C1C[C@H]3C=C[C@@H]1C3)NS2(=O)=O (stereo partly drawn)	0.164
CC1(C2(O)CC(c3ccccc3)ON2)CCCCC1 (stereo not drawn)	-1.27
Cc1nc(NCc2ccccc2)c(C(N)=O)c2c1COC(C)(C)C2	0.565
CCN(CCCc1ccccc1)CCCc1ccccc1	0.557
Cc1nnc2n(-c3ccccc3)c(=O)c3c4c(sc3n12)CC(C)CC4 (stereo not drawn)	0.767
CC(=O)N1CC=C2C(C#N)=C(N)C(C#N)(C#N)[C@H](c3ccoc3)[C@H]2C1	0.398
